inhibition for assorted compounds
Tested on: TALL-104 cells, ERK phosphorylation flow cytometry
Assay: inhibitors of MAPKK activity via ERK phosphorylation, late-stage follow-up, mechanism study for lytic granule exocytosis inhibitor project, TALL-104 cells, flow cytometry, CherryPick01 (AID 720667)
Conditions: active compounds read high; dose or concentration not given here
Provide only the numeric value, understood in %.

> print(dat)
                                   compound                               test.target  observed
1     Cc1ccc(Nc2nc(NCc3ccco3)c3ccccc3n2)cc1  TALL-104 cells, ERK phosphorylation flow cytometry       1.1
2         O=C(Cn1sc2ccccc2c1=O)Nc1ccc(F)cc1  TALL-104 cells, ERK phosphorylation flow cytometry      18.2
3  COC(=O)c1c(NC(=O)c2nc3ccccc3s2)sc2c1CC(C)(C)NC2(C)C  TALL-104 cells, ERK phosphorylation flow cytometry      11.8
4  COc1ccc(-c2cc(NC=O)c3ncc(-c4ccccc4)n3c2)cc1OC  TALL-104 cells, ERK phosphorylation flow cytometry      -2.1
5  CC1=C(C)CS(=O)N(S(=O)(=O)c2ccc(Cl)cc2)C1 (configuration not stated)  TALL-104 cells, ERK phosphorylation flow cytometry      83.8

Query string: For the compound shown here, CCCCC[C@@H](C)N1C[C@@H](COCc2ccccc2)Oc2cc(N3CC[C@@H](N(C)C)C3)ccc2S1(=O)=O , give the reported inhibition.
Result string: 51.1

###

Test system: TALL-104 cells, ERK phosphorylation flow cytometry
Test: inhibitors of MAPKK activity via ERK phosphorylation, late-stage follow-up, mechanism study for lytic granule exocytosis inhibitor project, TALL-104 cells, flow cytometry, CherryPick01 (AID 720667)
Conditions: dose or concentration not given here
Active and inactive are the calls of the source.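 How the source made its calls: active means over 50% inhibition of phosphorylation of either protein kinase C substrates or the ERK kinase; inactive means both inhibited below 50%.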
The reply should be one of these categories: 1 (yes) = active, 0 (no) = inactive

Reference set (8 entries):
> print(dat)
                                   compound  answer.label
1  CN(C)CCNC(=O)c1ccc(-c2cn3c(-c4ccc(Oc5ccccc5)cc4)cnc3cn2)cc1        0 (no)
2  Cc1ccc(S(=O)(=O)n2ccc3c(OCCOCCNCc4ccc(F)cc4)cccc32)cc1        0 (no)
3  COc1ccc(N2C(=O)CC(Sc3nnc(-c4ccccc4)o3)C2=O)cc1 (stereo not given)        0 (no)
4  COc1ccc(-c2cc(NC=O)c3ncc(-c4cccc(OC)c4)n3c2)cc1        0 (no)
5  CC(C)(c1ccccc1)c1ccc(OCC(O)CNC2CCN(Cc3ccccc3)CC2)cc1 (stereo not given)        0 (no)
6  CCCCC[C@@H](C)N1C[C@H](COCc2ccccc2)Oc2cc(N3CC[C@@H](N(C)C)C3)ccc2S1(=O)=O        0 (no)
7  O=C(CN1C(=O)/C(=C\c2cccc(Br)c2)Oc2ccccc21)NCCCN1CCOCC1        0 (no)
8               O=c1c2ccc(F)cc2sn1-c1ccccc1       1 (yes)

Query string: Any idea what this test logged for COc1ccc(-n2sc3ccccc3c2=O)cc1 ?
Result string: 0 (no)

Query string: Any idea what this test logged for O=CNc1cc(-c2ccsc2)cn2c(-c3ccccc3)cnc12 ?
Result string: 0 (no)
